Ref: patent US10028992B2

# System: α7 integrin promoter
# assay-overview: muscle cell-based assay: α7βgal+/− myoblasts/myotubes, LacZ reporter, β-galactosidase cleavage of FDG
# Set-up: species or system mouse; scale not given here
# conditions-used: Myoblasts, 10 uM
property-label: Results in α7+/− β-galactosidase assay
I'd appreciate a reply containing only the number, no unit.

Field request: Results in α7+/− β-galactosidase assay | item: Cc1nc(/C=C2\C(=O)Nc3ccccc32)c[nH]1 [drawing 688]
−0.03494

Could you tell me which Results in α7+/− β-galactosidase assay is on file for Cc1ccc2c(c1)/C(=C/c1ccc(F)cc1)C(=O)N2 [drawing 525] ?
−0.2542

Dear colleague, I am looking for the recorded Results in α7+/− β-galactosidase assay of the following molecule: O=C(c1ccccc1)N1CCN(S(=O)(=O)c2cccs2)CC1 [drawing 549]
−0.01279

// query Results in α7+/− β-galactosidase assay value for entry Cc1ccc2c(c1)/C(=C/c1ccccc1)C(=O)N2 [drawing 665]
0.07323

Would you kindly share the measured Results in α7+/− β-galactosidase assay for c1ccc(-c2cc(-c3nc4ccccc4[nH]3)c3ccccc3n2)cc1 [drawing 640] ?
−0.0409

Tell me the measured Results in α7+/− β-galactosidase assay of CCN(CC(=O)NCc1cccs1)C(=O)COc1ccc(C(N)=O)cc1 [drawing 562] , please.
0.2509

What value of Results in α7+/− β-galactosidase assay has been reported for the following molecule? Oc1nc(SCc2ccc(Cl)cc2)nc2ccsc12 [drawing 635]
−0.03652
